Test system: WPMY1-TUBA1B-RELA
Assay: phenotypically active (imaging signature differs from DMSO and reproducible) at any of 0.3-9 uM (binary (1 = active, 0 = inactive)); higher = active
Details: treatment time: 24 h
Lab note: assign the record to one of active, inactive

Recorded results for 3 compounds are shown here.
Compound: C=C1[C@@H](C)[C@H]2[C@H](Cc3ccccc3)NC(=O)[C@]23OC(=O)C=C[C@H](O)CCC[C@@H](C)CC=C[C@H]3[C@@H]1O
Cat: active

Compound: CC(C)(O)[C@H]1O[C@H]2CC[C@@]3(C)[C@@](O)(CC[C@H]4Cc5c([nH]c6ccccc56)[C@@]43C)C2=CC1=O
Cat: inactive

Compound: CCC1(CC)C(=O)NC(=O)N(C)C1=O
Cat: inactive

Lookup: Please indicate how the test categorized CC(C)N(CCC(C(N)=O)(c1ccccc1)c1ccccn1)C(C)C (centres undefined) [disopyramide] .
Found: inactive

* * *

Tested on: A549-GM130-SQSTM1
Test: lowest phenotypically active concentration; higher = less potent
Conditions: treatment time: 24 h
Where a name gives a salt, the structure may show the parent alone.
Measure: lowest phenotypically active concentration

Worked set:
Compound: CC[C@@H](C)C(=O)O[C@H]1[C@H](O)[C@H]2[C@@H](CN3C[C@@H](C)CC[C@H]3[C@@]2(C)O)C2C[C@]34O[C@]5(O)[C@@H](OC(=O)[C@](C)(O)CC)CC[C@@]3(C)[C@@H]5[C@@H](OC(C)=O)[C@@H](OC(C)=O)[C@H]4[C@@]21O (stereo partly drawn)
Target Entity: A549-GM130-SQSTM1
Result: 3 µM
--
Compound: CC[C@@H](CO)NC(=O)[C@@H]1C=C2c3cccc4c3c(cn4C)C[C@H]2N(C)C1 [methysergide]
Target Entity: A549-GM130-SQSTM1
Result: 9 µM
--
Compound: COc1ccc(CCN2CCC(Nc3nc4ccccc4n3Cc3ccc(F)cc3)CC2)cc1
Target Entity: A549-GM130-SQSTM1
Result: ≤ 0.3 µM
--
Compound: C=C1[C@@H](C)[C@H]2[C@H](Cc3ccccc3)NC(=O)[C@]23OC(=O)C=C[C@H](O)CCC[C@@H](C)CC=C[C@H]3[C@@H]1O
Target Entity: A549-GM130-SQSTM1
Result: 1 µM
--
Compound: CC(C)(C)c1cc(C=C(C#N)C#N)cc(Br)c1O
Target Entity: A549-GM130-SQSTM1
Result: 9 µM

Lookup: # input compound: C[C@@]12C(=O)OC(=O)[C@]1(C)[C@H]1CC[C@@H]2O1 ; wanted: its lowest phenotypically active concentration
Found: 3 µM

Lookup: Likewise for Cc1c(C(=O)c2cccc3ccccc23)c2cccc3c2n1[C@H](CN1CCOCC1)CO3 [WIN 55,212-2 mesylate] ?
Found: 9 µM

Lookup: Now try C[C@@H]1CC[C@H]2[C@@H](C)C(=O)O[C@@H]3O[C@@]4(C)CC[C@@H]1[C@]32OO4 .
Found: 3 µM

* * *

System: HepG2-ACTB-RAB5A
Assay: lowest phenotypically active concentration; higher = less potent
Details: treatment time: 24 h
Measure: lowest phenotypically active concentration (µM)
Report only the number, with the unit µM understood.

Smiles Text: C[C@@]12C(=O)OC(=O)[C@]1(C)[C@H]1CC[C@@H]2O1
Readout Number: 3

Smiles Text: N#CC(C#N)=NNc1ccc(OC(F)(F)F)cc1
Readout Number: 9

Let's switch to this molecule now.
Lookup: Could you tell me which lowest phenotypically active concentration is on file for CC(C)(C)c1cc(C=C(C#N)C#N)cc(C(C)(C)C)c1O ?
Found: 1

* * *

Catalogue of compounds with associated phenotypically active
Test system: HepG2-TUBA1B-RELA
Assay: phenotypically active (imaging signature differs from DMSO and reproducible) at any of 0.3-9 uM (binary (1 = active, 0 = inactive)); higher = active
Conditions: treatment time: 24 h
Structures can show the parent of a compound that is named as a salt.

Compound: C[C@H]1C(=O)O[C@@H]2CCN3CC=C(COC(=O)[C@](C)(O)[C@]1(C)O)[C@H]23 [Monocrotaline]
phenotypically active: 0 (inactive)

Compound: CNCC(O)c1ccc(O)c(OC)c1 (stereo not drawn) [Metanephrine hydrochloride DL]
phenotypically active: 0 (inactive)

Compound: CC(C)c1cccc(C(C)C)c1O [propofol]
phenotypically active: 0 (inactive)

Compound: C[C@@H]1CC[C@H]2[C@@H](C)C(=O)O[C@@H]3O[C@@]4(C)CC[C@@H]1[C@]32OO4 [Artemisinin]
phenotypically active: 1 (active)

Compound: BrC1C(Br)C(Br)C(Br)C(Br)C1Br (configuration not stated) [1,2,3,4,5,6-Hexabromocyclohexane]
phenotypically active: 0 (inactive)

Compound: COc1ccc(C[C@H]2NC[C@H](O)[C@H]2OC(C)=O)cc1 [Anisomycin]
phenotypically active: 1 (active)

Lookup: // returns reported phenotypically active for input CC[C@H]1C[N@@]2CC[C@H]1C[C@H]2[C@@H](O)c1ccnc2ccc(O)cc12 [Hydrocupreine]
Found: 0 (inactive)

Lookup: Entry to check: c1cncc(C2CC3CCN2CC3)c1 (configuration not stated) [RJR 2429 dihydrochloride]
Found: 0 (inactive)

Lookup: Subsequent entry: CC[C@H]1C2C[C@H]3[C@@H]4N(C)c5ccccc5[C@]45C[C@H](C2[C@H]5O)N3[C@@H]1O (some centres not stated) [Ajmaline]
Found: 0 (inactive)

Lookup: // same read-out, input: O=P1(N(CCCl)CCCl)NCCCO1 (configuration not stated) [cyclophosphamide]
Found: 0 (inactive)

Lookup: And for CN1[C@@H]2CC[C@H]1C[C@@H](OC(=O)[C@H](CO)c1ccccc1)C2 [Hyoscyamine (L)] ?
Found: 0 (inactive)

* * *

Test system: WPMY1-TP53BP1-CLTA
Assay: phenotypically active (imaging signature differs from DMSO and reproducible) at any of 0.3-9 uM (binary (1 = active, 0 = inactive)); higher = active
Conditions: treatment time: 24 h
Structures can show the parent of a compound that is named as a salt.
Measure: phenotypically active
Lab note: record just the number, no unit beside it.

Reference set, count: 5
Compound: COc1ccc(OC)c(C(O)C(C)N)c1 (centres undefined)
Measure: phenotypically active
Readout Number: 0
//
Compound: CN1CCC2=C[C@H](O)[C@H]3OC(=O)c4cc5c(cc4[C@H]3[C@@H]21)OCO5 [Hippeastrine hydrobromide]
Measure: phenotypically active
Readout Number: 0
//
Compound: Oc1ccc2c3c1O[C@H]1[C@@H](O)CC[C@@]4(O)[C@@H](C2)N(CC2CCC2)CC[C@]314
Measure: phenotypically active
Readout Number: 0
//
Compound: NCC1(CC(=O)O)CCCCC1
Measure: phenotypically active
Readout Number: 0
//
Compound: O[C@H]1[C@H](O)[C@@H](O)CN2CC[C@H](O)[C@H]12
Measure: phenotypically active
Readout Number: 0

Lookup: Entry Cc1sc2c(c1C)C(c1ccc(Cl)cc1)=N[C@@H](CC(=O)OC(C)(C)C)c1nnc(C)n1-2 , system WPMY1-TP53BP1-CLTA: what phenotypically active was measured?
Found: 1

Lookup: What do you have for CCN1CCN(C(=O)Cc2ccc(Nc3ncc(F)c(Nc4ccc(C(=O)Nc5ccccc5Cl)cc4)n3)cc2)CC1 ?
Found: 1

Lookup: And what about the compound CN1C2CCC1CC(O)C2 (centres undefined) ?
Found: 0

Lookup: Moving on to the next compound: C[C@@H]1C[C@@H]([C@H](O)CC2CC(=O)NC(=O)C2)C(=O)[C@@H](C)C1 [Cycloheximide]
Found: 1

* * *

System: A549-ACTB-RAB5A
Test: phenotypically active (imaging signature differs from DMSO and reproducible) at any of 0.3-9 uM (binary (1 = active, 0 = inactive)); higher = active
Conditions: treatment time: 24 h
Counter-ions that a name gives are not always drawn.
Thanks in advance; please answer with one of these: active, inactive

Molecule: COc1cc([C@@H]2c3cc4c(cc3[C@H](O)[C@H]3COC(=O)[C@H]23)OCO4)cc(OC)c1OC
Cat: active

Molecule: CNC(=O)Oc1ccc2c(c1)[C@]1(C)CCN(C)[C@@H]1N2C [Eserine sulfate, physostigmine sulfate]
Cat: inactive

Molecule: C/C=C(/C)C(=O)O[C@H]1CC[C@@]2(C)[C@@H]3CC[C@H]4[C@]5(O)C[C@H](O)[C@@]6(O)[C@@H](CN7C[C@@H](C)CC[C@H]7[C@@]6(C)O)[C@]5(O)C[C@@]42O[C@]13O
Cat: inactive

Molecule: OCC[N+]12CN3CN(CN(C3)C1)C2
Cat: inactive

Molecule: COc1ccc(C[C@H]2NC[C@H](O)[C@H]2OC(C)=O)cc1
Cat: active

Lookup: What is the recorded call for this molecule in the test? C[C@@H]1NCCc2cc(O)c(O)cc21 [Salsolinol hydrobromide]
Found: inactive

Lookup: // query: CNC(C)(C)Cc1ccccc1
Found: inactive

Lookup: And what about the molecule CC(C)(O)[C@H]1O[C@H]2CC[C@@]3(C)[C@@](O)(CC[C@H]4Cc5c([nH]c6ccccc56)[C@@]43C)C2=CC1=O ?
Found: active

# credit: the supplement of paper PMC7411054
